Target: SST5 (Homo sapiens, UniProt P35346)
Sequence (P35346 whole entry): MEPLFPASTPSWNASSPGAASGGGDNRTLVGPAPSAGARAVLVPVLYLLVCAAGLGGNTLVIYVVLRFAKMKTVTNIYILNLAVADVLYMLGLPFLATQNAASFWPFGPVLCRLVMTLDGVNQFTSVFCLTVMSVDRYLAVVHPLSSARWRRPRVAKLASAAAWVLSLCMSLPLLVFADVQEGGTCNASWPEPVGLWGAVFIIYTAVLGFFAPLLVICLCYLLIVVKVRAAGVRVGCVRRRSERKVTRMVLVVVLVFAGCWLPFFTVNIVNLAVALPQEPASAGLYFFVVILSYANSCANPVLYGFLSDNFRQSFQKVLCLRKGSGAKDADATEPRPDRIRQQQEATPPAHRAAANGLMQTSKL
Test: Hit Hunter cAMP XS+ assay, SST5 activation via Gi (reduction of forskolin-stimulated cAMP)
Assay type: cell-based
Settings: read-out: SST5 (EMax)
Method: A Hit Hunter® cAMP XS+ assay was used to monitor activation of the SST2 and SST5 via the Gi G protein. Cells were pre-stimulated with forskolin to elicit a cAMP response and the potency and efficacy of somatostatin agonists to reduce cAMP was measured. […] Signal was detected through incubation with 20 μL cAMP XS+ED/CL lysis cocktail ([…]; RT) followed by incubation with […] cAMP XS+EA reagent (180 min; RT). […]
*1 amine or outer side, *2 acyl side, *3 side chain or, on linkers, in order; H or OH if unused. Where a SMILES comes first, the peptide text is derived from it. Side-chain parts run from the residue outwards. [ ]: non-standard residue; d: D form. The star is where a group is joined. Ala(piperidin-4-yl) = O=C([C@H](CC1CCN([*:3])CC1)N[*:1])[*:2]; Ala(piperazin-1-yl) = N[C@@H](CN1CCNCC1)C(=O)O; X5 = CN([C@@H](CC1CCNCC1)C(=O)[*:2])[*:1]; Morpholine(3S-CO) = O=C(O)[C@@H]1COCCN1; Ethylenediamine = C(CN[*:2])N[*:1]; d(hPhe) = N[C@H](CCc1ccccc1)C(=O)O; Hyp = O=C(O)[C@@H]1C[C@@H](O)CN1; hPhe = N[C@@H](CCc1ccccc1)C(=O)O; 3Pal = N[C@@H](Cc1cccnc1)C(=O)O; Cyclohexylmethyl = C1CCC(C*)CC1; Tic = O=C(O)[C@@H]1Cc2ccccc2CN1; Phg = N[C@H](C(=O)O)c1ccccc1; CO = O=C([*:1])[*:2]; Bn = c1ccc(C*)cc1
Attribute: Emax
Please give a number only; it is taken to be in %.

COMPOUND	Emax / %
COc1ccc(C[C@@H]2NC(=O)[C@H](Cc3ccc(OCc4ccccc4)cc3)NC(=O)[C@H](CC3CCNCC3)NC(=O)[C@@H](Cc3c[nH]c4ccccc34)NC(=O)[C@H](c3ccccc3)NC(=O)[C@@H]3C[C@@H](OC(=O)NCCN)CN3C2=O)cc1 [Example 9] (cyclo([Hyp]([CO-Ethylenediamine])[Phg][dW][Ala(piperidin-4-yl)]Y(Bn)Y(Me)))	106

Find Emax (SST5 (Homo sapiens, UniProt P35346)) for the entry NCCNC(=O)O[C@@H]1C[C@H]2C(=O)N[C@H](CCc3ccccc3)C(=O)N[C@H](Cc3c[nH]c4ccccc34)C(=O)N[C@@H](CN3CCNCC3)C(=O)N[C@@H](Cc3ccc(OCC4CCCCC4)cc3)C(=O)N[C@@H](Cc3cccnc3)C(=O)N2C1 [Example 71] (cyclo([3Pal][Hyp]([CO-Ethylenediamine])[d(hPhe)][dW][Ala(piperazin-1-yl)]Y(Cyclohexylmethyl)))
103

What Emax appears in the records for this compound with SST5 (Homo sapiens, UniProt P35346)? NCCNC(=O)O[C@@H]1C[C@H]2C(=O)N[C@H](CCc3ccccc3)C(=O)N[C@H](Cc3c[nH]c4ccccc34)C(=O)N[C@@H](CC3CCNCC3)C(=O)N[C@@H](Cc3ccc(OCC4CCCCC4)cc3)C(=O)N[C@@H](Cc3cccnc3)C(=O)N2C1 [Example 53] (cyclo([3Pal][Hyp]([CO-Ethylenediamine])[d(hPhe)][dW][Ala(piperidin-4-yl)]Y(Cyclohexylmethyl)))
103

Under SST5 (Homo sapiens, UniProt P35346): Emax value of NCCNC(=O)O[C@@H]1C[C@H]2C(=O)N[C@@H](CCc3ccccc3)C(=O)N[C@H](Cc3c[nH]c4ccccc34)C(=O)N[C@@H](CC3CCNCC3)C(=O)N[C@@H](Cc3ccc(OCc4ccccc4)cc3)C(=O)N[C@@H](Cc3ccccc3)C(=O)N2C1 [Example 28] (cyclo(F[Hyp]([CO-Ethylenediamine])[hPhe][dW][Ala(piperidin-4-yl)]Y(Bn))) ?
100

Recall the recorded Emax for CN1C(=O)[C@@H](Cc2c[nH]c3ccccc23)NC(=O)[C@@H](CCc2ccccc2)NC(=O)[C@@H]2COCCN2C(=O)[C@@H]2Cc3ccccc3CN2C(=O)[C@H](Cc2ccc(OCc3ccccc3)cc2)NC(=O)[C@@H]1CC1CCNCC1 [Example 32] (cyclo([Tic][Morpholine(3S-CO)][d(hPhe)][dW][X5]Y(Bn))) with SST5 (Homo sapiens, UniProt P35346) and state it.
99.9

# value lookup — system SST5 (Homo sapiens, UniProt P35346), readout Emax, item NCCNC(=O)O[C@@H]1C[C@H]2C(=O)N[C@@H](c3ccccc3)C(=O)N[C@H](Cc3c[nH]c4ccccc34)C(=O)N[C@@H](CC3CCNCC3)C(=O)N[C@@H](Cc3ccc(OCc4ccccc4)cc3)C(=O)N[C@@H](Cc3cccnc3)C(=O)N2C1 [Example 11] (cyclo([3Pal][Hyp]([CO-Ethylenediamine])[Phg][dW][Ala(piperidin-4-yl)]Y(Bn)))
99.4
